# Tested on: ESRE
# test-summary: ESRE CALUX assay (unfolded protein response)
# Format: cell-based, human
# Design: key: –: no effect observed up to the highest test concentration
# conditions: cell signaling pathway assay, 24 h exposure
# Protocol: Six of the CALUX assays (TCF through p53) detect activation of several cellular signaling pathways, which are indicative of general stress and acute toxicity, but also a range of more specific types of toxicity, including reproductive toxicity. […] Subsequently, the luciferase signal was measured in a luminometer (InfinitePro coupled to a Connect Stacker, both TECAN). […]
endpoint-label: LEC ESRE

Solved entries:
Name the reported LEC ESRE value associated with the molecule CN1CCCC1=O [NMP, N‐methyl‐2‐pyrrolidone, reference compound]
–

Now this one: CCCCN(CC)C(=O)CCC(=O)N(CC)CCCC [EBSA, N,N′‐diethyl‐N,N′‐dibutylsuccindiamide]
–

Follow-up entry: CCCCN(CCCC)C(=O)CCC(=O)N(CCCC)CCCC [TBSA, N,N,N′,N′‐tetrabutylsuccindiamide]
–

Ok, now CCCCN(C)C(=O)CCC(=O)N(C)CCCC [MBSA, N,N′‐dimethyl‐N,N′‐dibutylsuccindiamide]
−2.4 Log M

In the following, a different molecule is considered.
Quick one: LEC ESRE for CCCCN1CCCC1=O [NBP, N‐Butylpyrrolidinone, reference compound] ?
–

###

# test-system: GR (Homo sapiens)
# Construct: expression construct for the full-length human receptor under investigation; expressed in transfected cells; host or cells: human U2-OS cells (ATCC HTB-96), stably transfected
# Sequence (P04150 whole entry): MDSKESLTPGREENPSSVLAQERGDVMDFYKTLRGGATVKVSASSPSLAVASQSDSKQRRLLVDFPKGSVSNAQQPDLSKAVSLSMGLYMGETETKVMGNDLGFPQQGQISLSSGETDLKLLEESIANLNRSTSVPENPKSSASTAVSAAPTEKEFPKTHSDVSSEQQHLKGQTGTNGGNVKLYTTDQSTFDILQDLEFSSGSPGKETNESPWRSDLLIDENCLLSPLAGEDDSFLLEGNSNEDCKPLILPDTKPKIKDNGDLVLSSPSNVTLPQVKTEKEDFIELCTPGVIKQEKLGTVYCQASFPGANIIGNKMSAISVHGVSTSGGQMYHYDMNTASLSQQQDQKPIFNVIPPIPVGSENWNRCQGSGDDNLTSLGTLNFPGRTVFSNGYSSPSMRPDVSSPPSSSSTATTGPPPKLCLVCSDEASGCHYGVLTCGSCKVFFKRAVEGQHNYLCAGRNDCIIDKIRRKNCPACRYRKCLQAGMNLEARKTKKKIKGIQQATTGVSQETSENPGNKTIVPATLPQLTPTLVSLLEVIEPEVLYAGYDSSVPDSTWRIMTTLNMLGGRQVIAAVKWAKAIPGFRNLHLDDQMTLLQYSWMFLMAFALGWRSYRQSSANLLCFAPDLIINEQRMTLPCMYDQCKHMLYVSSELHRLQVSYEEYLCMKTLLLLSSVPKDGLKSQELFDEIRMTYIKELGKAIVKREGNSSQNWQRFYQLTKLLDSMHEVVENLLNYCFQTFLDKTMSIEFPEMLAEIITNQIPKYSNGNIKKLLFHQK
# test-summary: GR-anti CALUX reporter gene assay (antagonistic mode)
# Format: cell-based
# Design: key: –: no effect observed up to the highest test concentration
# conditions: PC20, 24 h exposure
endpoint-label: LEC GR‐anti

LEC GR‐anti for CCCCN(C)C(=O)CCC(=O)N(C)CCCC [MBSA, N,N′‐dimethyl‐N,N′‐dibutylsuccindiamide] ?
–

Now the compound CCCCN(CC)C(=O)CCC(=O)N(CC)CCCC [EBSA, N,N′‐diethyl‐N,N′‐dibutylsuccindiamide]
–

Item: CCCCN(CCCC)C(=O)CCC(=O)N(CCCC)CCCC [TBSA, N,N,N′,N′‐tetrabutylsuccindiamide]
–

Another: CCCCN1CCCC1=O [NBP, N‐Butylpyrrolidinone, reference compound]
–

###

# test-system: TRβ (Homo sapiens, UniProt P10828)
# Construct: expression construct for the full-length human receptor under investigation; expressed in transfected cells; host or cells: human U2-OS cells (ATCC HTB-96), stably transfected
# Sequence (P10828 1-461): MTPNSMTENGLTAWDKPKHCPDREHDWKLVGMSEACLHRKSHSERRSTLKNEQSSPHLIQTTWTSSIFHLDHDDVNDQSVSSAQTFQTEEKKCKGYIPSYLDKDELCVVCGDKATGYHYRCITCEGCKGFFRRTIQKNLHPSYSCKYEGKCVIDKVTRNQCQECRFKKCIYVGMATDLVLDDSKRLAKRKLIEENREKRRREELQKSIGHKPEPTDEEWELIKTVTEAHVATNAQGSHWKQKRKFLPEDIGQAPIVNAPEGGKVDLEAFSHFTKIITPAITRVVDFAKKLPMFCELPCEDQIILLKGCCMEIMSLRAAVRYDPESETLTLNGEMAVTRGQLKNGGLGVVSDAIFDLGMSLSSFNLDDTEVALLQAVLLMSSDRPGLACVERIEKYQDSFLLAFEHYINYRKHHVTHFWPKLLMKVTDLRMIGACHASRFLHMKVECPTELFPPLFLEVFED
# test-summary: TRβ CALUX reporter gene assay
# Format: cell-based
# Parameters: key: –: no effect observed up to the highest test concentration
# conditions: PC10, 24 h exposure
endpoint-label: LEC TRβ

Could you tell me which LEC TRβ is on file for CN1CCCC1=O [NMP, N‐methyl‐2‐pyrrolidone, reference compound] ?
–

What would you report for CCCCN1CCCC1=O [NBP, N‐Butylpyrrolidinone, reference compound] ?
–

Also, CCCCN(CCCC)C(=O)CCC(=O)N(CCCC)CCCC [TBSA, N,N,N′,N′‐tetrabutylsuccindiamide] please.
–

Also, CCCCN(C)C(=O)CCC(=O)N(C)CCCC [MBSA, N,N′‐dimethyl‐N,N′‐dibutylsuccindiamide] please.
–

From here, focus on the item given below.
Which LEC TRβ value is on record for CCCCN(CC)C(=O)CCC(=O)N(CC)CCCC [EBSA, N,N′‐diethyl‐N,N′‐dibutylsuccindiamide] ?
–
